- System: B-cell line
- Protocol summary: Cytotoxicity against Balb/c mouse B cells assessed as decrease cell survival at 1 uM by MTT assay
- Format: cell-based
Assay metric: Activity

Some solved cases for reference:
Readout Activity for CCCCOc1cc(C)c2c(c1C)[C@@H]1OC(=O)[C@@H](C)[C@@H]1CC2 , test system B-cell line, was Non-Toxic

Readout Activity for CCOc1cc(C)c2c(c1C)[C@@H]1OC(=O)[C@@H](C)[C@@H]1CC2 , test system B-cell line, was Non-Toxic

Readout Activity for CCCOc1cc(C)c2c(c1C)[C@@H]1OC(=O)[C@@H](C)[C@@H]1CC2 , test system B-cell line, was Non-Toxic

Readout Activity for Cc1cc(OC(=O)C(C)C)c(C)c2c1CC[C@H]1[C@H](C)C(=O)O[C@@H]21 , test system B-cell line, was Non-Toxic

Others:
Readout Activity for Cc1cc(OC(=O)c2ccccc2)c(C)c2c1CC[C@H]1[C@H](C)C(=O)O[C@@H]21 , test system B-cell line, was Non-Toxic

Readout Activity for CCCCCCCC(=O)Oc1cc(C)c2c(c1C)[C@@H]1OC(=O)[C@@H](C)[C@@H]1CC2 , test system B-cell line, was Non-Toxic

Readout Activity for Cc1cc(OCc2ccccc2)c(C)c2c1CC[C@H]1[C@H](C)C(=O)O[C@@H]21 , test system B-cell line, was Non-Toxic

Readout Activity for CC(=O)Oc1cc(C)c2c(c1C)[C@@H]1OC(=O)[C@@H](C)[C@@H]1CC2 , test system B-cell line, was Non-Toxic

Readout Activity for CCCCC(=O)Oc1cc(C)c2c(c1C)[C@@H]1OC(=O)[C@@H](C)[C@@H]1CC2 , test system B-cell line, was Non-Toxic

====

- Tested on: B-cell line
- Protocol summary: Cytotoxicity against Balb/c mouse B cells assessed as decrease cell survival at 1 uM by MTT assay
- Type: cell-based
Assay metric: Activity

Some solved cases for reference:
Memo: CCCC(=O)Oc1cc(C)c2c(c1C)[C@@H]1OC(=O)[C@@H](C)[C@@H]1CC2 , reported Activity: Non-Toxic

Memo: CCCCCC(=O)Oc1cc(C)c2c(c1C)[C@@H]1OC(=O)[C@@H](C)[C@@H]1CC2 , reported Activity: Non-Toxic

Memo: Cc1cc(OC(=O)C(C)(C)C)c(C)c2c1CC[C@H]1[C@H](C)C(=O)O[C@@H]21 , reported Activity: Non-Toxic

Memo: COc1cc(C)c2c(c1C)[C@@H]1OC(=O)[C@@H](C)[C@@H]1CC2 , reported Activity: Toxic

Memo: Cc1cc(OC(=O)CCC(=O)Nc2ccccc2F)c(C)c2c1CC[C@H]1[C@H](C)C(=O)O[C@@H]21 , reported Activity: Non-Toxic

Memo: Cc1cc(OC(=O)CCC(=O)O)c(C)c2c1CC[C@H]1[C@H](C)C(=O)O[C@@H]21 , reported Activity: Non-Toxic

Memo: COc1ccc(NC(=O)CCC(=O)Oc2cc(C)c3c(c2C)[C@@H]2OC(=O)[C@@H](C)[C@@H]2CC3)cc1 , reported Activity: Non-Toxic

Memo: Cc1cc(OCc2ccc(Cl)cc2)c(C)c2c1CC[C@H]1[C@H](C)C(=O)O[C@@H]21 , reported Activity: Non-Toxic

Others:
Memo: CCC(=O)Oc1cc(C)c2c(c1C)[C@@H]1OC(=O)[C@@H](C)[C@@H]1CC2 , reported Activity: Toxic
